These measurements were taken from PubChem BioAssay (NCATS).

Tested on: PAD
Test: qHTS profiling for inhibitors of Plasmodium falciparum proliferation (AID 504749); note: nearly all actives have a fitted effect of over 60% in size
Details: P. falciparum in erythrocytes, SYBR Green DNA, 72 h; series mostly up to 28.7 µM
Records with an inconclusive call do not appear. Calls of active or inactive are those of the source. Calls come from the whole dose curve; as a rule, active = well fitted inhibition curve with a large enough effect; inconclusive = small, poorly fitted or top-dose-only effect; inactive = flat fitted curve, though single readings scatter.
Classes used: YES = active, NO = inactive

>  <compound>
CCCCCCCCCC(=O)O[C@H]1CC[C@H]2[C@@H]3CCC4=CC(=O)CC[C@@H]4[C@H]3CC[C@]12C

>  <qualitative label>
NO

$$$$
>  <compound>
CN1C(=O)CCS(=O)(=O)C1c1ccc(Cl)cc1 (stereo not given)

>  <qualitative label>
NO

$$$$
>  <compound>
O=C(N/N=C/c1ccc([N+](=O)[O-])o1)c1cc([N+](=O)[O-])cc([N+](=O)[O-])c1O

>  <qualitative label>
YES

$$$$
>  <compound>
CC(C)(C)NCC(O)c1cc(Cl)c(N)c(C(F)(F)F)c1 (stereo not given)

>  <qualitative label>
YES

$$$$
>  <compound>
CCOC(=O)CC(SP(=S)(OC)OC)C(=O)OCC (stereo not given)

>  <qualitative label>
NO

$$$$
>  <compound>
O=C(O)CCCc1ccc(N(CCCl)CCCl)cc1

>  <qualitative label>
NO

$$$$
>  <compound>
CN1CCC(O)(c2ccc(F)cc2)C(C(=O)c2ccc(F)cc2)C1 (stereo not given)

>  <qualitative label>
NO

$$$$
>  <compound>
O=C1Nc2ccc(Cl)cc2C(c2ccccc2)=NC1O (stereo not given)

>  <qualitative label>
NO

$$$$
>  <compound>
CN1C(=O)CC(=O)N(c2ccccc2)c2cc(Cl)ccc21

>  <qualitative label>
NO

$$$$
>  <compound>
COc1c2c(cc3c1OCO3)CCN(C)C2

>  <qualitative label>
NO

$$$$
>  <compound>
C[C@](O)(CS(=O)(=O)c1ccc(F)cc1)C(=O)Nc1ccc(C#N)c(C(F)(F)F)c1

>  <qualitative label>
NO

$$$$
>  <compound>
CCOP(=S)(OCC)Oc1ccc2c(C)c(Cl)c(=O)oc2c1

>  <qualitative label>
NO

$$$$
>  <compound>
COP(=S)(OC)SCN1C(=O)c2ccccc2C1=O

>  <qualitative label>
NO

$$$$
>  <compound>
CCC1(c2ccccc2)C(=O)N(COC)C(=O)N(COC)C1=O

>  <qualitative label>
NO

$$$$
>  <compound>
COP(=S)(OC)Oc1ccc(S(=O)(=O)N(C)C)cc1

>  <qualitative label>
NO

$$$$
>  <compound>
CC(C)=CC1C(C(=O)OCN2C(=O)C3=C(CCCC3)C2=O)C1(C)C (stereo not given)

>  <qualitative label>
NO

$$$$
>  <compound>
CNC(C)(C)Cc1ccccc1

>  <qualitative label>
NO

$$$$
>  <compound>
Nc1nc(N)nc(NC2CC2)n1

>  <qualitative label>
NO

$$$$
>  <compound>
NCCc1ccc(O)cc1

>  <qualitative label>
NO

$$$$
>  <compound>
CN1C(=O)NC(=O)C(C)(C2=CCCCC2)C1=O (stereo not given)

>  <qualitative label>
NO

$$$$
>  <compound>
COC(=O)C(c1ccccc1)C1CCCCN1 (stereo not given)

>  <qualitative label>
NO

$$$$
>  <compound>
CN1C(=O)COc2c(C(=O)NC3CN4CCC3CC4)cc(Cl)cc21 (stereo not given)

>  <qualitative label>
NO

$$$$
>  <compound>
O=C1c2ccccc2C(=O)C1C(=O)C(c1ccccc1)c1ccccc1

>  <qualitative label>
NO

$$$$
>  <compound>
Clc1cccc(SC2CCNCC2)n1

>  <qualitative label>
NO

$$$$
>  <compound>
Nc1ccc([As](=O)(O)O)cc1

>  <qualitative label>
NO

$$$$

====

Experiment: Drug repurposing screens with cells derived from glioblastoma tumor samples (AID 1345199); note: % is set by controls: 0 for no effect and ±100 for the full control effect; nearly all actives have a fitted effect of over 40% in size
Details: GBM patient neurospheres viability, ATP luminescence, 48 h; at 45.9 µM (top of the series); tumour line B
Procedure: CD133+ cells were isolated from GBM patient biopsies and cultured as neurospheres. Neurospheres from four patients were used to screen the NCATS pharmaceutical collection (NPC) library of approved drugs and bioactive compounds. […] The neurospheres were incubated with drugs for 48 hours in 1536-well format, then assayed with an ATP content cell viability assay. […]
Inconclusive results are not listed. The source made the active and inactive calls. The call rests on the fitted dose curve; in most records, active means well fitted inhibition curve with a large enough effect; inconclusive means small, poorly fitted or top-dose-only effect; inactive means flat fitted curve, though single readings scatter.
Each item that follows carries a reported activity, negative = cell killing.
value type: activity, negative = cell killing

>  <compound>
CN1C(=O)CC(=O)N(c2ccccc2)c2cc(Cl)ccc21

>  <value type>
activity, negative = cell killing

>  <val>
-10.8% (inactive)

$$$$
>  <compound>
O=c1[nH]oc2c1CCNC2

>  <value type>
activity, negative = cell killing

>  <val>
-19.5% (inactive)

$$$$
>  <compound>
CCC(C)(C)c1ccc(O)cc1

>  <value type>
activity, negative = cell killing

>  <val>
-7.41% (inactive)

$$$$
>  <compound>
NC1=NC(=O)C(c2ccccc2)O1 (stereo not drawn)

>  <value type>
activity, negative = cell killing

>  <val>
-0.343% (inactive)

$$$$
>  <compound>
c1ccc2c(c1)sc1ccccc12

>  <value type>
activity, negative = cell killing

>  <val>
-12.7% (inactive)

$$$$
>  <compound>
CNCC(=O)c1ccc(O)c(O)c1

>  <value type>
activity, negative = cell killing

>  <val>
-11.2% (inactive)

$$$$
>  <compound>
C[C@]12CC[C@@H]3c4ccc(OC(=O)N(CCCl)CCCl)cc4CC[C@H]3[C@@H]1CC[C@@H]2OP(=O)(O)O

>  <value type>
activity, negative = cell killing

>  <val>
-5.05% (inactive)

$$$$
>  <compound>
COP(=S)(OC)SCN1C(=O)c2ccccc2C1=O

>  <value type>
activity, negative = cell killing

>  <val>
-19.8% (inactive)

$$$$
>  <compound>
CCOP(=S)(OCC)Oc1ccc2c(C)c(Cl)c(=O)oc2c1

>  <value type>
activity, negative = cell killing

>  <val>
-3.04% (inactive)

$$$$
>  <compound>
O=C1c2ccccc2C(=O)c2ccccc21

>  <value type>
activity, negative = cell killing

>  <val>
4.04% (inactive)

$$$$
>  <compound>
COP(=S)(OC)Oc1ccc(S(=O)(=O)N(C)C)cc1

>  <value type>
activity, negative = cell killing

>  <val>
-4.11% (inactive)

$$$$
>  <compound>
O=C1OC(c2ccc(O)c(S(=O)(=O)O)c2)(c2ccc(O)c(S(=O)(=O)O)c2)c2c(Br)c(Br)c(Br)c(Br)c21

>  <value type>
activity, negative = cell killing

>  <val>
-1.68% (inactive)

$$$$
>  <compound>
O=C1c2ccccc2C(=O)C1C(=O)C(c1ccccc1)c1ccccc1

>  <value type>
activity, negative = cell killing

>  <val>
-21.4% (inactive)

$$$$
>  <compound>
O=C(O)/C=C\C(=O)O

>  <value type>
activity, negative = cell killing

>  <val>
0.272% (inactive)

$$$$
>  <compound>
CC(C)N(CCC(C(N)=O)(c1ccccc1)c1ccccn1)C(C)C (stereo not drawn)

>  <value type>
activity, negative = cell killing

>  <val>
-20.9% (inactive)

$$$$
>  <compound>
COc1cccc([C@@]2(O)CCCC[C@@H]2CN(C)C)c1

>  <value type>
activity, negative = cell killing

>  <val>
-5.81% (inactive)

$$$$
>  <compound>
CC(C)(C)c1ccc(O)cc1

>  <value type>
activity, negative = cell killing

>  <val>
-7.29% (inactive)

$$$$
>  <compound>
O=P1(N(CCCl)CCCl)NCCCO1 (stereo not drawn)

>  <value type>
activity, negative = cell killing

>  <val>
-0.921% (inactive)

$$$$
>  <compound>
CC(=O)NC1CCSC1=O (stereo not drawn)

>  <value type>
activity, negative = cell killing

>  <val>
-16.4% (inactive)

$$$$
>  <compound>
CCCCCN(C)CCC(O)(P(=O)(O)O)P(=O)(O)O

>  <value type>
activity, negative = cell killing

>  <val>
-6.41% (inactive)

$$$$
>  <compound>
COC(=O)C(c1ccccc1)C1CCCCN1 (stereo not drawn)

>  <value type>
activity, negative = cell killing

>  <val>
-10.4% (inactive)

$$$$
>  <compound>
CC(C)NC(C)C

>  <value type>
activity, negative = cell killing

>  <val>
6.4% (inactive)

$$$$
>  <compound>
C=C(C)[C@H]1CN[C@H](C(=O)O)[C@H]1CC(=O)O

>  <value type>
activity, negative = cell killing

>  <val>
-14.8% (inactive)

$$$$

====

Assay: NFAT Signaling Pathway (AID 444);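 note: carbachol stimulus at about its EC50 of 1 µM final; % is set by controls: 0 for no effect and ±100 for the full control effect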
Settings: Jurkat NFAT-bla M1, carbachol, beta-lactamase ratio, 5 h; at 38 µM (top of the series)
Results filed as inconclusive are left out.

>  <compound>
O=P1(N(CCCl)CCCl)NCCCO1 (stereo unspecified)

>  <activity change, negative = inhibition, %>
4.3

$$$$
>  <compound>
O=C(O)CCCc1ccc(N(CCCl)CCCl)cc1

>  <activity change, negative = inhibition, %>
-2.19

$$$$
>  <compound>
O=c1[nH]oc2c1CCNC2

>  <activity change, negative = inhibition, %>
9.6

$$$$
>  <compound>
CCCCC/C=C\C/C=C\C/C=C\C/C=C\CCCC(=O)NCC(=O)O

>  <activity change, negative = inhibition, %>
-2.7

$$$$
>  <compound>
CC(C)c1cccc(C(C)C)c1O

>  <activity change, negative = inhibition, %>
7.25

$$$$
>  <compound>
O=C(CCCN1CCC2(CC1)C(=O)NCN2c1ccccc1)c1ccc(F)cc1

>  <activity change, negative = inhibition, %>
10.5

$$$$
